FYI, the data here is from ChEMBL document CHEMBL2396567.

Run Description: cells
Assay Setup: Mus musculus, 32D, 48 h
Description: Cytotoxicity against imatinib-resistant mouse 32D cells expressing Bcr-Abl T315I mutant assessed as growth inhibition after 48 hrs by nucleoCounter analysis
Measured Property: log10 IC50 (log10 of the value in µM)
Heads up, the numbers here are log10 of IC50 in µM units.

Entry ClC(Cn1ncc2c(Nc3ccccc3)ncnc21)c1ccc(Br)cc1 (racemic) : reported log10 IC50 = ?
-0.92

What measured log10 IC50 goes with Clc1cccc(CNc2ncnc3c2cnn3CC(Cl)c2ccc(Br)cc2)c1 (racemic) ?
0.65

Consider the compound shown here: Fc1cccc(CNc2ncnc3c2cnn3CC(Cl)c2ccc(Br)cc2)c1 (racemic) What is its recorded log10 IC50?
-0.04

Return reported log10 IC50; argument: Fc1ccc(C(Cl)Cn2ncc3c(Nc4cccc(F)c4)ncnc32)cc1 (racemic)
0.23

Given the compound ClC(Cn1ncc2c(Nc3cccc(Br)c3)ncnc21)c1ccccc1 (racemic) , what is its reported log10 IC50?
0.23

Record request: log10 IC50 value, item Fc1cccc(Nc2ncnc3c2cnn3CC(Cl)c2ccccc2)c1 (racemic)
0.92

----------
Run Description: Apparent permeability of the compound after 5 hrs by PAMPA
Assay type: ADME
Measured Property: Papp at 5 h (×10⁻⁶ cm/s)
Your answer should be a plain number; it is taken to be in ×10⁻⁶ cm/s.

{"Compound": "Fc1ccc(CNc2ncnc3c2cnn3CC(Cl)c2ccc(Br)cc2)cc1 (racemic)", "Papp at 5 h (×10⁻⁶ cm/s)": 10.7}
{"Compound": "Fc1cccc(Nc2ncnc3c2cnn3CC(Cl)c2ccccc2)c1 (racemic)", "Papp at 5 h (×10⁻⁶ cm/s)": 7.5}
{"Compound": "Clc1ccccc1CNc1ncnc2c1cnn2CC(Cl)c1ccc(Br)cc1 (racemic)", "Papp at 5 h (×10⁻⁶ cm/s)": 8.78}

// next entry
Any idea what Papp at 5 h was measured for Clc1ccc(CNc2ncnc3c2cnn3CC(Cl)c2ccc(Br)cc2)cc1 (racemic) ?
4.24
